- Tested on: Hepatotoxicity
- assay_summary: FDA HLAED, serum glutamic oxaloacetic transaminase (SGOT) increase
- condition_notes: human
reported_property: SGOT Increase - Activity Score

compound=CC(=O)[C@]1(O)Cc2c(O)c3c(c(O)c2[C@@H](O[C@H]2C[C@H](N)[C@H](O)[C@H](C)O2)C1)C(=O)c1ccccc1C3=O result=Inactive
compound="Cc1ccc(C(=O)Oc2ccc(C(O)CNC(C)(C)C)cc2OC(=O)c2ccc(C)cc2)cc1 (centres undefined)" result=Inactive
compound=CN(C)CCCN1c2ccccc2CCc2ccc(Cl)cc21 result=Inactive
compound="COCCc1ccc(OCC(O)CNC(C)C)cc1 (centres undefined)" result=Inactive

----------
- Tested on: Hepatotoxicity
- assay_summary: FDA HLAED, serum glutamic oxaloacetic transaminase (SGOT) increase
- condition_notes: human
reported_property: SGOT Increase - Number of Reports

molecule="C[C@@H]1CN(c2c(F)c(N)c3c(=O)c(C(=O)O)cn(C4CC4)c3c2F)C[C@H](C)N1 [SPARFLOXACIN]" result="< 4"
molecule="CC1(C)S[C@@H]2[C@H](NC(=O)C3(N)CCCCC3)C(=O)N2[C@H]1C(=O)O [CYCLACILLIN]" result="< 4"
molecule="Cc1ccc(Cl)c(Nc2ccccc2C(=O)O)c1Cl [MECLOFENAMIC ACID]" result="< 4"
molecule="Cc1nnc2n1-c1ccc(Cl)cc1C(c1ccccc1)=NC2 [ALPRAZOLAM]" result=">= 4"
molecule="CC1(C)S[C@@H]2[C@H](NC(=O)[C@H](N)c3ccc(O)cc3)C(=O)N2[C@H]1C(=O)O [AMOXICILLIN]" result="< 4"

Test system Hepatotoxicity; read-out SGOT Increase - Number of Reports; what value for Nc1nc(O)c2ncn(COC(CO)CO)c2n1 [GANCICLOVIR] ? >= 4

Test system Hepatotoxicity; read-out SGOT Increase - Number of Reports; what value for CC1(C)S[C@@H]2[C@H](NC(=O)[C@H](NC(=O)N3CCN(S(C)(=O)=O)C3=O)c3ccccc3)C(=O)N2[C@H]1C(=O)O [MEZLOCILLIN] ? < 4

Test system Hepatotoxicity; read-out SGOT Increase - Number of Reports; what value for O=C1CC[C@@]2(O)[C@H]3Cc4ccc(O)c5c4[C@@]2(CCN3CC2CC2)[C@H]1O5 [NALTREXONE] ? < 4

Test system Hepatotoxicity; read-out SGOT Increase - Number of Reports; what value for CC(NC(C)(C)C)C(=O)c1cccc(Cl)c1 (stereo not drawn) [BUPROPION] ? < 4

Test system Hepatotoxicity; read-out SGOT Increase - Number of Reports; what value for Nc1nnc(-c2cccc(Cl)c2Cl)c(N)n1 [LAMOTRIGINE] ? >= 4

Test system Hepatotoxicity; read-out SGOT Increase - Number of Reports; what value for C[C@H]1O[C@H](O[C@H]2[C@H](O)[C@@H](O)[C@@H](O[C@H]3[C@H](O)[C@@H](O)C(O)O[C@@H]3CO)O[C@@H]2CO)[C@H](O)[C@@H](O)[C@@H]1N[C@H]1C=C(CO)[C@@H](O)[C@H](O)[C@H]1O (stereo partly drawn) [ACARBOSE] ? >= 4

Test system Hepatotoxicity; read-out SGOT Increase - Number of Reports; what value for N=C(N)N/N=C/c1c(Cl)cccc1Cl [GUANABENZ] ? < 4

Test system Hepatotoxicity; read-out SGOT Increase - Number of Reports; what value for CCCCCCC(=O)O[C@H]1CC[C@H]2[C@@H]3CCc4cc(O)ccc4[C@H]3CC[C@]12C [ESTRADIOL ENANTHATE] ? >= 4

Test system Hepatotoxicity; read-out SGOT Increase - Number of Reports; what value for CC(C)COCC(CN(Cc1ccccc1)c1ccccc1)N1CCCC1 (stereo not drawn) [BEPRIDIL] ? < 4

Test system Hepatotoxicity; read-out SGOT Increase - Number of Reports; what value for O=c1[nH]cnc2c1ncn2[C@H]1CC[C@@H](CO)O1 [DIDANOSINE] ? >= 4

Test system Hepatotoxicity; read-out SGOT Increase - Number of Reports; what value for CC(C)c1c(C(=O)Nc2ccccc2)c(-c2ccccc2)c(-c2ccc(F)cc2)n1CC[C@@H](O)C[C@@H](O)CC(=O)O [ATORVASTATIN] ? >= 4

Test system Hepatotoxicity; read-out SGOT Increase - Number of Reports; what value for CC(CN(C)C)CN1c2ccccc2CCc2ccccc21 (stereo not drawn) [TRIMIPRAMINE] ? < 4

Test system Hepatotoxicity; read-out SGOT Increase - Number of Reports; what value for CCC(=O)Oc1ccc2c(c1)CC[C@@H]1[C@@H]2CC[C@]2(C)[C@@H](OC(=O)CC)CC[C@@H]12 [ESTRADIOL DIPROPIONATE] ? >= 4

Test system Hepatotoxicity; read-out SGOT Increase - Number of Reports; what value for O=[N+]([O-])O[C@@H]1CO[C@H]2[C@@H]1OC[C@@H]2O [ISOSORBIDE MONONITRATE] ? < 4

----------
- Test system: Hepatotoxicity
- assay_summary: FDA HLAED, serum glutamic oxaloacetic transaminase (SGOT) increase
- condition_notes: human
reported_property: SGOT Increase - Number of Reports

compound="COCC(=O)Nc1c(I)c(C(=O)NCC(O)CO)c(I)c(C(=O)N(C)CC(O)CO)c1I (configuration not stated) [IOPROMIDE]" result="< 4"
compound="CCOC(=O)N1CCC(=C2c3ccc(Cl)cc3CCc3cccnc32)CC1 [LORATADINE]" result=">= 4"
compound="C[C@@H]1CN([C@H]2CC[C@](C#N)(c3ccc(F)cc3)CC2)CC[C@]1(C(=O)O)c1ccccc1 [LEVOCABASTINE]" result="< 4"
compound="O=C(O)Cc1ccccc1Nc1c(Cl)cccc1Cl [DICLOFENAC]" result=">= 4"
compound="CC(=O)O[C@H]1C(=O)[C@@]2(C)[C@H]([C@H](OC(=O)c3ccccc3)[C@]3(O)C[C@H](OC(=O)[C@H](O)[C@@H](NC(=O)c4ccccc4)c4ccccc4)C(C)=C1C3(C)C)[C@]1(OC(C)=O)CO[C@@H]1C[C@@H]2O [PACLITAXEL]" result=">= 4"

Give its SGOT Increase - Number of Reports value. Item: COc1ccc2c(c1)c(CC(=O)O)c(C)n2C(=O)c1ccc(Cl)cc1 [INDOMETHACIN] >= 4

Give its SGOT Increase - Number of Reports value. Item: CN1CCCC(n2nc(Cc3ccc(Cl)cc3)c3ccccc3c2=O)CC1 (configuration not stated) [AZELASTINE] < 4

----------
- Tested on: Hepatotoxicity
- assay_summary: FDA HLAED, serum glutamic oxaloacetic transaminase (SGOT) increase
- condition_notes: human
reported_property: SGOT Increase - Activity Score

compound=CC[C@H]1OC(=O)[C@H](C)[C@@H](O[C@H]2C[C@@](C)(OC)[C@@H](O)[C@H](C)O2)[C@H](C)[C@@H](O[C@@H]2O[C@H](C)C[C@H](N(C)C)[C@H]2O)[C@](C)(O)C[C@@H](C)C(=O)[C@H](C)[C@@H](O)[C@]1(C)O result=Active
compound="O=c1[nH]c2ccccc2n1C1CCN(CCCC(c2ccc(F)cc2)c2ccc(F)cc2)CC1 [PIMOZIDE]" result=Inactive
compound="CCOC(=O)OC(C)OC(=O)[C@@H]1N2C(=O)[C@@H](NC(=O)[C@H](N)c3ccccc3)[C@H]2SC1(C)C (some centres not stated)" result=Inactive
compound=CC[C@H](C)C(=O)O[C@H]1C[C@H](O)C=C2C=C[C@H](C)[C@H](CC[C@@H](O)C[C@@H](O)CC(=O)O)[C@H]21 result=Active
compound="CC(C)C(=O)Nc1ccc([N+](=O)[O-])c(C(F)(F)F)c1 [FLUTAMIDE]" result=Active

Give its SGOT Increase - Activity Score value. Item: COc1ccc(OC)c(C(O)CNC(=O)CN)c1 (configuration not stated) Inactive

Give its SGOT Increase - Activity Score value. Item: C[C@H]1C[C@H]2[C@@H]3CCC4=CC(=O)C=C[C@]4(C)[C@@]3(Cl)[C@@H](O)C[C@]2(C)[C@@]1(O)C(=O)CO Inactive

----------
- Tested on: Hepatotoxicity
- assay_summary: FDA HLAED, liver enzyme composite activity
- condition_notes: human, Liver
reported_property: Composite Activity - Score

Answered cases to consult:
compound="CC1(C)NC(=O)N(c2ccc([N+](=O)[O-])c(C(F)(F)F)c2)C1=O [NILUTAMIDE]" study_target=Hepatotoxicity result=Inactive
compound=CO[C@H]1/C=C/O[C@@]2(C)Oc3c(C)c(O)c4c(c3C2=O)C2=NC3(CCN(CC(C)C)CC3)NC2=C(NC(=O)/C(C)=C\C=C\[C@H](C)[C@H](O)[C@@H](C)[C@@H](O)[C@@H](C)[C@H](OC(C)=O)[C@@H]1C)C4=O study_target=Hepatotoxicity result=Active
compound=O=C(O)c1cn(C2CC2)c2cc(N3CCNCC3)c(F)cc2c1=O study_target=Hepatotoxicity result=Inactive
compound="Cc1cccc(C)c1OCC(C)N (stereo not drawn)" study_target=Hepatotoxicity result=Inactive
compound=NNCCc1ccccc1 study_target=Hepatotoxicity result=Active

Kindly review the next compound as well.
Give its Composite Activity - Score value. Item: Clc1ccc(CO/N=C(\Cn2ccnc2)c2ccc(Cl)cc2Cl)c(Cl)c1 Inactive

Data origin, for the record: ChEMBL document CHEMBL1697781
